Kindly find below pKi information for UniProt:Q99572 taken from the literature.
Numbers only, as −log10 of the molar value.

>>> endpoint_value("Cc1c(C(=O)N2CCc3c(nnn3-c3ncccn3)C2)cccc1C(F)(F)F")
8.64
>>> endpoint_value("Cc1cccc(-n2nnc3c2CCN(C(=O)c2cccc(C(F)(F)F)c2Cl)[C@H]3C)n1 (single isomer, unassigned)")
7.70
>>> endpoint_value("Cc1ncccc1-c1nnc2n1C[C@H](C)N(Cc1cccc(C(F)(F)F)c1Cl)C2=O")
7.90
>>> endpoint_value("O=C(c1cccc(Cl)c1Cl)N1CCc2c(nnn2-c2ccccc2)C1")
7.36
>>> endpoint_value("C[C@H]1Cn2c(nnc2-c2ccc(F)cn2)CN1C(=O)c1cccc(C(F)(F)F)c1Cl")
7.90

Below are 3 molecules. Give each one its pKi.
1. C[C@H]1Cn2c(nnc2-c2ncco2)C(=O)N1Cc1cccc(C(F)(F)F)c1Cl
2. CCOC(=O)C1c2ncn(-c3ccccn3)c2CCN1C(=O)c1cccc(C(F)(F)F)c1Cl (stereo not shown)
3. O=C(c1cccc(C(F)(F)F)c1Cl)N1CCc2c(nnn2-c2cccc(F)n2)C1

Reply |
8.40
7.04
7.00

Batch request: pKi for each of the following molecules.
1. C[C@H]1Cn2c(nnc2-c2cn[nH]c2)C(=O)N1Cc1cccc(C(F)(F)F)c1Cl
2. C[C@H]1Cc2c(nnn2-c2ncc(F)cn2)CN1C(=O)c1ccc(Cl)c(F)c1Cl (single isomer, unassigned)

Reply |
7.60
8.60
